- test.method.notes: NCI Yeast Anticancer Drug Screen. Data for the rad50 strain (AID 155);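 also: 0% = growth of vehicle-only cultures of the same strain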
- condition.description: S. cerevisiae rad50 strain growth inhibition; at 50.0 µM (retest, dose inferred, filed as 5.0)
This is part of a sample that, as a whole, favours compounds with a hit. Of some 79,000 tested, about 15% had one in any assay. The source made the active and inactive calls. Rule as the data show it: active = growth inhibition above about 70%; inactive = the rest.
Tick one outcome: label 1 for active, label 0 for inactive

Oc1c(Cl)c2ccccc2c2ccccc12 ... label 0
O=C1C2(Cl)C(Cl)=C(Cl)C1(Cl)C1(Cl)C(Cl)=C(Cl)C(=O)C21Cl (stereo unspecified) ... label 1
CS/C(N)=N/NC(=O)CCC(=O)Nc1cc(Cl)c(Cl)cc1Cl ... label 0
C[C@@]12C(=O)OC(=O)[C@]1(C)[C@H]1CC[C@@H]2O1 ... label 1
O=C1NC(c2cccc3ccccc23)Nc2ccc(Cl)cc21 (stereo unspecified) ... label 1
Cc1ccc(S(=O)(=O)Nc2ccc3c(c2)C(=O)c2ccccc2-3)cc1 ... label 1
S=C(N/N=C1\C=Cc2ccccc2C1)N/N=C1\C=Cc2ccccc2C1 ... label 0
C/C(CCSCc1ccccc1)=N/NC(N)=S ... label 0

Each compound tested received a call. Report the one for Cc1cc2nc(CC(=O)c3ccncc3)c(CC(=O)c3ccncc3)nc2cc1C . label 1

Tell me the assay call for O=C1CC(c2ccccc2)C(=O)N2C(=O)CC(c3ccccc3)C(=O)N12 (stereo unspecified) please. label 0

Assay outcome for Cc1ccc(S(=O)(=O)N(c2ccccc2-c2ccccc2)C(C)C(=O)O)cc1 (stereo unspecified) : what was it? label 0

---

- test.method.notes: NCI Yeast Anticancer Drug Screen. Data for the rad50 strain (AID 155);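 also: 0% = growth of vehicle-only cultures of the same strain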
- condition.description: S. cerevisiae rad50 strain growth inhibition; at 50.0 µM; active compounds read high
The panel holds about 79,000 compounds, 15% with a hit somewhere; the sample as a whole holds those more often.
Each entry gets false if its growth inhibition stays under 80%, and true if its growth inhibition is 80% or above.

Cn1c2c(c3ccccc31)CCN1C[C@@H]3CCCC[C@H]3C[C@@H]21 ... false
CC(C)N(CN1C(=O)N/C(=C/c2cccc(/C=C3/NC(=O)N(CN(C(C)C)C(C)C)C3=O)c2)C1=O)C(C)C ... false
COc1cc(/C=C(\C#N)c2ccc([N+](=O)[O-])cc2)ccc1O ... false
CC1=C(C(=O)Nc2ccccc2C)C(c2ccc(Cl)c(Cl)c2)C(C(=O)Nc2ccccc2C)=C(C)N1 ... true
CC(=Nc1ccc(N(C)C)cc1)c1ccccc1 ... false
O=C1NOCC1N=Cc1cc(Cl)ccc1O (centres undefined) ... false

Does growth inhibition meet or surpass 80% for CCC(c1ccc(O)cc1)C(CC)c1ccc(O)c(O)c1 (centres undefined) ? true

Hello, I need to know if CC(=O)Nc1cccc2ccc(C)cc12 has measured growth inhibition not below 80%. Thanks! false

Could you tell me if the measured growth inhibition of O=C1C(=O)N(C(=O)c2ccc(Cl)c(Cl)c2)c2ccc(Cl)cc21 reaches 80% or more? false

Is growth inhibition for O=C1Oc2ccccc2C1c1ccccc1 (centres undefined) at or above 80%? false

Say whether O=C(O)C(CS)Nc1c2ccccc2nc2ccccc12 (centres undefined) shows growth inhibition of 80% or more. true

Is the recorded value of growth inhibition equal to or greater than 80% for this compound? CCNC(=S)NNC(=S)NNc1ccccc1 false

Hi team, for O=C1C(=O)N(c2cc(Cl)ccc2Cl)C(=O)C(=O)C1c1nc2ccccc2o1 , is the recorded growth inhibition at or above 80%? false

Assess whether reported growth inhibition for CN1CCN(CCOC(=O)N2c3ccccc3Sc3ccccc32)CC1 sits at 80% or higher. false

Kindly determine if growth inhibition recorded for C=CC[C@]1(C(C)C(OC(C)=O)c2ccc3c(c2)OCO3)C[C@@H](OC)C=CC1=O (some centres undefined) is above or exactly 80%. false

Confirm if growth inhibition reported for the compound CC(=O)c1c2c(cc3c1CC1(C3)Cc3ccc4c(c3C1=O)CCC4)CCC2 (centres undefined) is 80% or above. false

Decide: growth inhibition of [Cl][Pt+2]([Cl])([Cl])[Cl].[NH-]CC1(C[NH-])CCCC1 >= 80%? true

Check the entry CC(=O)Nc1ccc2c(c1)[nH]c(=O)c1cc(Cl)ccc12 : does growth inhibition equal or exceed 80%? true

Determine whether measured growth inhibition meets or exceeds 80% for CCCCCCCCCCCCCCCCCO false

Hi, just wondering whether c1ccc2c(c1)Nc1cc3ccccc3cc1N2 shows growth inhibition of 80% or higher. false

The origin of these recorded values is PubChem BioAssay (NCI).
